These measurements were taken from the supplement of paper PMC9170038.

System: MS2 coat protein
methodSummary: apparent KD of MS2 coat protein; higher = weaker reporter binding
runConditions: Eterna round: R101; input ligand: none
The sequences listed here are annotated with their apparent KD of MS2 coat protein.

As a guide, the following entries are already answered.
INSERT INTO measurements (monomersequence, assaymetric, assayresult) VALUES
  ('UUGGACGUCGUAGGAUAUGUAGGAUAUUCCUACAUGAGGAUCACCCAUGUUUACAUGGAAGAAGGACAGAAGGACGAUGUCCAU (puzzle (switch architecture): Same State NG 2)', 'apparent KD of MS2 coat protein', '572 nM'),
  ('UGCUAACUGUAGAAGGGUGACAUGAGGAUCACCCAUGUGCACGCGCGAUUUACGGCGCGCGUGCCACAGGAUAUACAGUUUAGU [Atquar] (puzzle (switch architecture): Inverted Same State NG 2)', 'apparent KD of MS2 coat protein', '32.7 nM'),
  ('AAAUAACUUGAAGGAUAUCAGGGUGCACCUCAGUAAAACUGAGGUGCACCCUGAGAAGGUCGAGGAUCACCCGAUCUAAAUAAA [#SharedSequence SLExNG1: 3-2] (puzzle (switch architecture): Small Loop Exclusion NG 1)', 'apparent KD of MS2 coat protein', '9.19 nM');

Next sequence, apparent KD of MS2 coat protein to be filled in.
For reference, reported apparent KD of MS2 coat protein for AAAUAACUUGAAGGAUAUGACCCUCGAGGUGACUAAAAGUCACCUCGAGGGUCAGAAGGUCGAGGAUCACCCGAUCUAAAUAAA [#SharedSequence SLExNG1: 3-1] (puzzle (switch architecture): Small Loop Exclusion NG 1) stands at 10.2 nM
